FYI, the data here is from ChEMBL document CHEMBL1201862.

As shown below, each of these compounds has a reported GI50 value.
System: K562
ASSAY_DETAILS: NCI tumour cell line growth inhibition, 48 h
The source made the active and inactive calls. Cut-off read from the data, not from the text of the source: active = GI50 up to about 1.1 µM and inactive = higher.

Q: Tell me GI50 reported for CCCS(=O)OC1C(C2COC(C)(C)O2)OC2OC(C)(C)OC21 (centres undefined)
Ans: 5.65 µM (inactive)

----------
System: SK-MEL-2
ASSAY_DETAILS: NCI tumour cell line growth inhibition, 48 h
Activity calls are given as the source filed them. No stated cut-off is given here; in the data, active = GI50 up to about 1.1 µM and inactive = higher.
EXPERIMENTAL_ENDPOINT: GI50

Below, 5 compounds whose answers are already recorded.
{"COMPOUND": "CCOC(=O)c1sc2c(sc(=O)n2-c2ccccc2)c1O", "EXPERIMENTAL_ENDPOINT": "GI50", "MEASURED_RESULT": "> 100 µM (inactive)"}
{"COMPOUND": "CCOc1ccc2nc(NC(=O)C(=O)C3C(=O)C(CC4C(=O)c5ccccc5C4=O)C(=O)CC3(C)C)sc2c1 (stereo unspecified)", "EXPERIMENTAL_ENDPOINT": "GI50", "MEASURED_RESULT": "> 100 µM (inactive)"}
{"COMPOUND": "Cc1cc([N+](=O)[O-])c(S(=O)(=O)c2ccccc2)c([N+](=O)[O-])c1", "EXPERIMENTAL_ENDPOINT": "GI50", "MEASURED_RESULT": "20 µM (inactive)"}
{"COMPOUND": "CC(=O)OCCc1cc2ccccc2oc1=O", "EXPERIMENTAL_ENDPOINT": "GI50", "MEASURED_RESULT": "> 100 µM (inactive)"}
{"COMPOUND": "CN(C)/C=N\\c1nncc2[nH]nnc12", "EXPERIMENTAL_ENDPOINT": "GI50", "MEASURED_RESULT": "> 100 µM (inactive)"}

Q: Tell me GI50 reported for COCOCCCCCO[Si](C)(C)C(C)(C)C
Ans: 16 µM (inactive)

Q: Tell me GI50 reported for CC(=O)OCC1OC(Nn2c(=O)[nH]c3ccccc3c2=O)C(OC(C)=O)C(OC(C)=O)C1OC(C)=O (stereo unspecified)
Ans: > 100 µM (inactive)

Q: Tell me GI50 reported for OCC(O)COc1c(Cl)ccc(Cl)c1Cl (stereo unspecified)
Ans: > 100 µM (inactive)

Q: Tell me GI50 reported for CN(C)CCNC(=O)c1cccc2c1nc(-c1ccccn1)c1ccccc12
Ans: 18.8 µM (inactive)

Q: Tell me GI50 reported for FC(F)(F)c1ccc(C2ON=C(c3ccccc3)N2C23CC4CC(CC(C4)C2)C3)cc1 (stereo unspecified)
Ans: > 10 µM (inactive)

Q: Tell me GI50 reported for CCCCCC(C/C=N/N(C)C)C(O)(C(F)(F)F)C(F)(F)F (stereo unspecified)
Ans: 25.9 µM (inactive)

----------
Tested on: NCI-H460
ASSAY_DETAILS: NCI tumour cell line growth inhibition, 48 h
Calls of active or inactive are those of the source. Cut-off read from the data, not from the text of the source: active = GI50 up to about 1.1 µM and inactive = higher.
The reply should name one outcome from active, inactive

Previously resolved entries follow.
{"COMPOUND": "CC(=O)OC1(C(C)=O)CC2(c3ccccc3)OC1(c1ccccc1)c1ccccc12 (centres undefined)", "ANSWER_LABEL": "inactive"}
{"COMPOUND": "NNC(=O)CCc1ccc2ccc3ccccc3c2c1", "ANSWER_LABEL": "inactive"}
{"COMPOUND": "CC(=O)O[C@H]1C(=O)[C@@]2(C)C([C@H](OC(=O)c3ccccc3)[C@]3(O)C[C@H](OC(=O)[C@H](O)[C@@H](NC(=O)c4ccc(Cl)cc4)c4ccccc4)C(C)=C1C3(C)C)C1(OC(C)=O)CO[C@@H]1C[C@@H]2O (some centres undefined)", "ANSWER_LABEL": "active"}
{"COMPOUND": "O=C(O)CNc1ncc2c(n1)-c1ccccc1OC2", "ANSWER_LABEL": "inactive"}
{"COMPOUND": "CN(O)C(=O)Cc1ccc(OCc2cccc(Cl)c2)cc1", "ANSWER_LABEL": "inactive"}

Q: GET /call?item= OCC(O)C(OC1OC(CO)C(O)C(O)C1O)c1nn(-c2ccccc2)c2nc3cc(Cl)ccc3nc12 (centres undefined) returns the recorded outcome of this test.
Ans: inactive

Q: GET /call?item= CCOC(=O)N1CC2(C(=O)OC)C=CC1C(C(=O)OC)C2 (centres undefined) returns the recorded outcome of this test.
Ans: inactive

Q: GET /call?item= C=CCC(O[Si](C)(C)C(C)(C)C)c1cc(O[Si](C)(C)C(C)(C)C)ccc1OC (centres undefined) returns the recorded outcome of this test.
Ans: inactive

Q: GET /call?item= O=C1/C(=C/c2ccc3c(c2)OCO3)SC2C=Nc3ccccc3N12 (centres undefined) returns the recorded outcome of this test.
Ans: inactive
